- Measured target: MMP-12CD (Homo sapiens)
- Construct: MMP-12CD
- Sequence (P39900 106-263 limits assumed): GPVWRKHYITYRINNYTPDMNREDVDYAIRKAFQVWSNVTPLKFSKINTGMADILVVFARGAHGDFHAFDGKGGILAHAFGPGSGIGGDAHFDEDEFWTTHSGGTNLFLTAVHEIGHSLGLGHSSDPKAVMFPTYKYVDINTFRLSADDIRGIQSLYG
- Procedure text: Thiopeptolide hydrolysis assay, MMP-12CD
- Format: biochemical
- Study conditions: thiopeptolide substrate, HEPES pH 7.0, 22° C.
Answer each item with its documented IC50.
Report the value in µM with no unit label.

Request: Give IC50 for "CC1(C)SCCN(S(=O)(=O)c2ccc(-c3ccc(F)c(F)c3)cc2)[C@H]1C(=O)O"
Result: 0.0285

Request: In one line, give reported IC50 of the entry "CC1(C)SCCN(S(=O)(=O)c2ccc(-c3ccc(F)cc3F)cc2)[C@H]1C(=O)O" .
Result: 0.013

Request: Tell me its IC50 given "CC1(C)SCCN(S(=O)(=O)c2ccc(-c3ccc4ccccc4c3)cc2)[C@H]1C(=O)O" as the entry.
Result: 0.00113

Request: Read off the recorded IC50 for "CCc1ccc(-c2ccc(S(=O)(=O)N3CCSC(C)(C)[C@@H]3C(=O)O)cc2)cc1"
Result: 0.00125

Request: Report IC50, nothing else, for this molecule: "CC1(C)SCCN(S(=O)(=O)c2ccc(-c3ccc(-c4ccccc4)c(F)c3)cc2)[C@H]1C(=O)O"
Result: 0.001

Request: Supply measured IC50 of "CC1(C)SCCN(S(=O)(=O)c2ccc(-c3ccc(-c4ccccc4)cc3)cc2)[C@H]1C(=O)O" in your reply.
Result: 0.001

Request: Report measured IC50; entry is "CCOc1ccc(-c2ccc(S(=O)(=O)N3CCSC(C)(C)[C@@H]3C(=O)O)cc2)cc1"
Result: 0.001

Request: Return reported IC50. Input molecule: "CN(C)c1ccc(-c2ccc(S(=O)(=O)N3CCSC(C)(C)[C@@H]3C(=O)O)cc2)cc1"
Result: 0.0103

Request: Output IC50 of "CC1(C)SCCN(S(=O)(=O)c2ccc(-c3ccc(Oc4ccccc4)cc3)cc2)[C@H]1C(=O)O"
Result: 0.004

Request: Answer with the recorded IC50 of "CC1(C)SCCN(S(=O)(=O)c2ccc(-c3ccc(OC(F)(F)F)cc3)cc2)[C@H]1C(=O)O" only.
Result: 0.001
